Each item that follows carries a reported ΔR/DRAΔ2 AA.
assay: Probe fluorescence ratio response to arachidonic acid relative to ADIFAB2; type: binding; details: Table 5; Arachidonic acid
Give the figure by itself; no unit, no explanation.

Request: Query (molecule): L2P12G9: FABP probe, substitutions M18L A73V vs SEQ ID NO: 2 (protein, listed as Rattus norvegicus, PEPTIDE (1)...(131) wild-type rat intestinal fatty acid binding protein) AFDGTWKVDRNENYEKFLEKMGINVVKRKLGAHDNLKLTITQEGNKFTVKESSNFRNIDVVFELGVDFAYSLVDGTELTGTWTMEGNKLVGKFKRVDNGKELIAVREISGNELIQTYTYEGVEAKRIFKKE ; field requested: ΔR/DRAΔ2 AA
Response: 0.5

Request: Query (molecule): L2P9E12: FABP probe, substitutions M18L F55L A73I vs SEQ ID NO: 2 (protein, listed as Rattus norvegicus, PEPTIDE (1)...(131) wild-type rat intestinal fatty acid binding protein) AFDGTWKVDRNENYEKFLEKMGINVVKRKLGAHDNLKLTITQEGNKFTVKESSNLRNIDVVFELGVDFAYSLIDGTELTGTWTMEGNKLVGKFKRVDNGKELIAVREISGNELIQTYTYEGVEAKRIFKKE ; field requested: ΔR/DRAΔ2 AA
Response: 0.6

Continuing:
Request: Query (molecule): L2P22E6: FABP probe, substitutions M18V G31A F55I A73W vs SEQ ID NO: 2 (protein, listed as Rattus norvegicus, PEPTIDE (1)...(131) wild-type rat intestinal fatty acid binding protein) AFDGTWKVDRNENYEKFVEKMGINVVKRKLAAHDNLKLTITQEGNKFTVKESSNIRNIDVVFELGVDFAYSLWDGTELTGTWTMEGNKLVGKFKRVDNGKELIAVREISGNELIQTYTYEGVEAKRIFKKE ; field requested: ΔR/DRAΔ2 AA
Response: 1.0
